Protein target, amino acids: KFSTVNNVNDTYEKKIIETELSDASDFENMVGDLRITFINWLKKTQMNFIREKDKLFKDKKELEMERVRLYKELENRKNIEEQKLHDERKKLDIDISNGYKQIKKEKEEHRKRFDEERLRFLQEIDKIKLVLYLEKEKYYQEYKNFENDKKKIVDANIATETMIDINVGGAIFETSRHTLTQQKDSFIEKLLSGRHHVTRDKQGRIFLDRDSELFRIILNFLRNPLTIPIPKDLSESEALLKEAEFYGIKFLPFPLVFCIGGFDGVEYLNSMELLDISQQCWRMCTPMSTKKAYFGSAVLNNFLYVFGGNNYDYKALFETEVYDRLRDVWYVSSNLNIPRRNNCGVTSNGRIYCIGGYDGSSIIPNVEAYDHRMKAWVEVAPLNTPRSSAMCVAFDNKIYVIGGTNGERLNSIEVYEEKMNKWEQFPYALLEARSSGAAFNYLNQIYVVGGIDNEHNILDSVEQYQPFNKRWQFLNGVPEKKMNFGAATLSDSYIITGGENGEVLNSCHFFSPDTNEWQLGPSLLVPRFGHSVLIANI
measuredParameter: pKd
Would you please state pKd, meaning minus log10 of the concentration in mol/L, as a bare number?

Prompt: pKd for C=CC1=C(C)c2cc3[nH]c(cc4nc(cc5[nH]c(cc1n2)c(C)c5C=C)C(C)=C4CCC(=O)O)c(CCC(=O)O)c3C.[Fe+3] ?
Completion: 7.44

The reported measurements were obtained from paper PMC11561146.
